Target: cholesterol esterase (cholesterol ester hydrolase; CEH) (Bos taurus)
Construct: purchased Sigma C-1892; host or cells: bovine pancreas
Sequence (P30122 19-597): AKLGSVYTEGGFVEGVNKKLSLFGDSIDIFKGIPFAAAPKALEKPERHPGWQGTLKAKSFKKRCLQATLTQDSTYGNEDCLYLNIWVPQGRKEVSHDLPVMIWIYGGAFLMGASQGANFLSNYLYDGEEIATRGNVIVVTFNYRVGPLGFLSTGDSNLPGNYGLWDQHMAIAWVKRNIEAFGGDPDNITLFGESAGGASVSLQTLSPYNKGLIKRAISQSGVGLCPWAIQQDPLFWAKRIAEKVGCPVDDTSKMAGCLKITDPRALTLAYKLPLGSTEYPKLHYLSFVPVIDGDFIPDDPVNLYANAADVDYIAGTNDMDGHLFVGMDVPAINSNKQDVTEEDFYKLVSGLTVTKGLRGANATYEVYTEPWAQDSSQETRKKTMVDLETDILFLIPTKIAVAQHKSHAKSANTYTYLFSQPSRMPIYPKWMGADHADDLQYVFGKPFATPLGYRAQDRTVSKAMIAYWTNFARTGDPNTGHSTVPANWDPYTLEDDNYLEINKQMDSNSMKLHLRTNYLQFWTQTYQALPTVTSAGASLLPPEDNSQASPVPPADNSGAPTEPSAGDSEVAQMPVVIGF
Assay: Inhibition of cholesteryl ester formation by cholesterol esterase (CEH), in vitro
Assay type: biochemical, bovine
Please assign Not satisfied whenever IC50 is at or above 20 µM, and Satisfied whenever it is below.

Solved entries (count: 3):
Test smiles	System	Cat
O=C(NC1CCCCC1)Oc1ccccc1-c1ccccc1	cholesterol esterase (cholesterol ester hydrolase; CEH) (Bos taurus)	Satisfied
O=C(NCCCCc1ccccc1)Oc1ccccc1-c1ccccc1	cholesterol esterase (cholesterol ester hydrolase; CEH) (Bos taurus)	Satisfied
CCCCCCCN(Cc1ccc(CC(C)(C)C)cc1)C(=O)Oc1ccccc1-c1ccccc1	cholesterol esterase (cholesterol ester hydrolase; CEH) (Bos taurus)	Not satisfied

In: Does this molecule meet the criterion IC50 < 20 µM? `O=C(NCC1CCCCC1)Oc1ccccc1-c1ccccc1`
Out: Satisfied

In: I'd appreciate it if you could check whether `CCCCCCCCNC(=O)Oc1ccccc1-c1ccccc1` has IC50 smaller than 20 µM.
Out: Satisfied

In: Hello, is IC50 of the following molecule strictly smaller than 20 µM? `CN1CCN(C(=O)Oc2ccccc2-c2ccccc2)CC1`
Out: Not satisfied

In: Here's an entry: `O=C(Oc1ccccc1-c1ccccc1)N1CCOCC1` . Is its IC50 below 20 µM?
Out: Not satisfied

---

biological target: cholesterol esterase (cholesterol ester hydrolase; CEH) (Bos taurus, UniProt P30122); construct: purchased Sigma C-1892; host or cells: bovine pancreas; test: Inhibition of cholesteryl ester formation by cholesterol esterase (CEH), in vitro; format: biochemical, bovine; conditions: 37° C., cholesterol and oleic acid, buffered cholesterol esterase from bovine pancreas; read-out: IC50 Against CEH (concentration that inhibits one-half of the ester formation)
molecules and their reported pIC50
For clarity, pIC50 is expressed as the negative log10 of concentration in mol/L.

Known results for molecules:
Molecule	Property measured	Obs value
O=C(Oc1ccccc1-c1ccccc1)N1CCC(c2ccccc2)CC1 [Example 9]	pIC50	5.72
CC1(C)CCCN(C(=O)Oc2ccccc2-c2ccccc2)C1 [Example 6]	pIC50	4.42
CC1CCN(C(=O)Oc2ccccc2-c2ccccc2)CC1 [Example 8]	pIC50	6.10

In: Provide cholesterol esterase (cholesterol ester hydrolase; CEH) (Bos taurus, UniProt P30122) pIC50 reading for O=C(Oc1ccccc1-c1ccccc1)N1CCSCC1 [Example 11] .
Out: 5.92

In: Check cholesterol esterase (cholesterol ester hydrolase; CEH) (Bos taurus, UniProt P30122) data and give pIC50 for O=C(Oc1ccccc1-c1ccccc1)N1CCCCC1 [Example 7] .
Out: 7.10

In: Report pIC50 on cholesterol esterase (cholesterol ester hydrolase; CEH) (Bos taurus, UniProt P30122) for this entry: O=C(Oc1ccccc1-c1ccccc1)N1CCN(c2ccccc2)CC1 [Example 13]
Out: 4.28

These measurements were taken from patent US5190940A.
